system: HCT-116 (Colorectal Carcinoma); assay: combination Emax (second highest fraction inhibited in the dose matrix, 72 h); higher = more inhibition; extreme values may be limits of the assay
PROPERTY_NAME: combination Emax

compound="CC1(C)CCC(CN2CCN(c3ccc(C(=O)NS(=O)(=O)c4ccc(NCC5CCOCC5)c([N+](=O)[O-])c4)c(Oc4cnc5[nH]ccc5c4)c3)CC2)=C(c2ccc(Cl)cc2)C1 [Venetoclax] + CS(=O)(=O)CCNCc1ccc(-c2ccc3ncnc(Nc4ccc(OCc5cccc(F)c5)c(Cl)c4)c3c2)o1 [Lapatinib] (first compound max 1 µM, 7x7, partner max 10 µM)" property_name="combination Emax" measured=0.391
compound="CN(C)CCCOc1ccc(-c2ccc3ncc4c(c3c2)n(C2CCOCC2)c(=O)n4C)cn1 [AZD0156] + C=CCn1c(=O)c2cnc(Nc3ccc(N4CCN(C)CC4)cc3)nc2n1-c1cccc(C(C)(C)O)n1 [AZD1775] (first compound max 1 µM, partner max 1 µM)" property_name="combination Emax" measured=0.494
compound="COc1cccc2c1C(=O)c1c(O)c3c(c(O)c1C2=O)C[C@@](O)(C(=O)CO)C[C@@H]3O[C@H]1C[C@H](N)[C@H](O)[C@H](C)O1 [Doxorubicin] + Cc1cc2ncnn2cc1Nc1ncc2c(n1)n(C1CCOCC1)c(=O)n2C [AZD7648] (first compound max 1 µM, 7x7, partner max 10 µM)" property_name="combination Emax" measured=0.918
compound="Cc1nc(Nc2ncc(C(=O)Nc3c(C)cccc3Cl)s2)cc(N2CCN(CCO)CC2)n1 [Dasatinib] + CC(=O)Nc1cccc(-n2c(=O)n(C3CC3)c(=O)c3c(Nc4ccc(I)cc4F)n(C)c(=O)c(C)c32)c1 [Trametinib] (first compound max 2 µM, 7x7, partner max 1 µM)" property_name="combination Emax" measured=0.979
